- assayExplanation: serotonin-gated TRPC4 signal block – cell-based, second counter screen, HEK293 TRPC4/5HT1a, Fluo-4, counter-screen for TRPC4 inhibitor project, confirmation (AID 434978);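 as to outcome: serotonin given first at submaximal then at maximal dose after compound preincubation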
- runParameters: Fluo-4 calcium flux, at 10 µM, serotonin added to trigger calcium flux
Calls of active or inactive are those of the source.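 The calls were made as follows: active = primary screen active whose calcium signal fell more than 3 SD beyond the full-serotonin control mean in both duplicate plates; inactive = the rest.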
Tick one outcome: 1 (yes) for active, 0 (no) for inactive

>>> print(df.to_string())
                                   molecule  discretelabel
0            OCCNc1nc(NCc2ccccc2)c2ccccc2n1        1 (yes)
1  CC1CCc2c(C(=O)N3CCN(S(=O)(=O)c4cccs4)CC3)csc2C1 (stereo not drawn)         0 (no)
2  O=C(CCN1CCc2ccccc2C(O)(c2ccccc2)C1)c1ccc2c(c1)OCCO2 (stereo not drawn)        1 (yes)
3             Oc1ccc(CN2CCCCC2)nc1-c1ccccc1        1 (yes)
4  COc1ccc(-c2n[nH]c(C)c2-c2ccccc2OC)c(O)c1         0 (no)

Ask | State the result this test recorded for Cc1ccc(/C=N/NC(=O)C2COc3ccccc3O2)s1 (stereo not drawn) .
Reply | 0 (no)

Ask | State the result this test recorded for `CCOCCCn1cnc2c(c1=O)c1nc3ccccc3nc1n2-c1ccc(C)cc1` .
Reply | 0 (no)

Ask | State the result this test recorded for `Cc1nn(-c2cc(C(F)(F)F)ccc2Cl)c2nc(C(Cl)(Cl)Cl)[nH]c(=O)c12` .
Reply | 0 (no)

Ask | State the result this test recorded for `Cc1cc(Br)cc(C)c1OCCCCN(C)C` .
Reply | 0 (no)

Ask | State the result this test recorded for `Cc1nn2c(N3CCN(C)CC3)c3c(nc2c1-c1ccccc1)CCCC3` .
Reply | 0 (no)

Ask | State the result this test recorded for CCOc1ccc(S(=O)(=O)Nc2cccc(C(=O)NCC(c3ccccc3)N(C)C)c2)cc1 (stereo not drawn) .
Reply | 0 (no)

---

- testedSystem: Short transient receptor potential channel 4 (Mus musculus) (UniProt Q9QUQ5)
- Sequence (Q9QUQ5 whole entry, looked up): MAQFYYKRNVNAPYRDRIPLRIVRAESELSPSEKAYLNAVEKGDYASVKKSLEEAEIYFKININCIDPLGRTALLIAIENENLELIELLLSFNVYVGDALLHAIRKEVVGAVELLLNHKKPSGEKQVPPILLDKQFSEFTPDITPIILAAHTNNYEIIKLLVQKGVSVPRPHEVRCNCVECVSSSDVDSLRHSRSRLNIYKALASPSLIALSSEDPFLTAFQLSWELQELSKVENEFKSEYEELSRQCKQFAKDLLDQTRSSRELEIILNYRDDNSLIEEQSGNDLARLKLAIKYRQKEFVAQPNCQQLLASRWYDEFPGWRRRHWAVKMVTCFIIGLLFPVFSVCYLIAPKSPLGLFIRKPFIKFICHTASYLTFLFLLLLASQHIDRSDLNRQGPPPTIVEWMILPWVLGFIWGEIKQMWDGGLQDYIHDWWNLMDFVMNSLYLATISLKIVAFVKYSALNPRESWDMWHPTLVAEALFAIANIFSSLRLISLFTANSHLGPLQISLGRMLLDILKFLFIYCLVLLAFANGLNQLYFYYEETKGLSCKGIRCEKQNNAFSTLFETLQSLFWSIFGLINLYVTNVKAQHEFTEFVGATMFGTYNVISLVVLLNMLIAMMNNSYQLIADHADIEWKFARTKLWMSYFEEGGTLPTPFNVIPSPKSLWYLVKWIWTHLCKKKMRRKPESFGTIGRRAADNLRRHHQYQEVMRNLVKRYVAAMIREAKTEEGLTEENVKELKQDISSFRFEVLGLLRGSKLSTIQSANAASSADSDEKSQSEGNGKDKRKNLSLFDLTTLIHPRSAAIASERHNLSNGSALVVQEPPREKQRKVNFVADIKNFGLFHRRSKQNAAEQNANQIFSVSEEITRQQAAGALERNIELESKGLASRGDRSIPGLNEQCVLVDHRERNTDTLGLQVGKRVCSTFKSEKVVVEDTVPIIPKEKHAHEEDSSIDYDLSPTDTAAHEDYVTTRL
- assayExplanation: blockers of DAMGO-evoked TRPC4 calcium flux – cell-based, Fluo4, HEK293 TRPC4beta/mu-opioid, confirmation (AID 2636)
- runParameters: at 10 µM
Activity calls are given as the source filed them.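 How the source made its calls: active means calcium signal cut by more than 3 SD below the full-agonist control yet still positive, in both repeats and the earlier primary screen; inactive means the rest.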
Tick one outcome: active, inactive

// below: answered molecules
                                   molecule  discretelabel
0               Cc1nc(Cl)c(Cl)n1CCOc1ccccc1         active
1  O=c1c2ccccc2nc(COc2ccccc2)n1/N=C/c1cc([N+](=O)[O-])ccc1O       inactive
2  c1ccc(C(c2nnnn2C2CCCC2)N2CCN(c3ccccc3)CC2)cc1 (stereo not given)       inactive
3  CCc1cc2c(SCC(=O)N(C)C3CCS(=O)(=O)C3)ncnc2s1 (stereo not given)       inactive
4  COC(=O)c1ccc(N2CCN(C)CC2)c(NC(=O)c2cccs2)c1       inactive

Ask | State the result this test recorded for Cc1cc(CN2CCCC(C(=O)Nc3ccc(-c4nc5ccccc5[nH]4)cc3)C2)n[nH]1 (stereo not given) .
Reply | active

Ask | State the result this test recorded for `NC(=S)N/N=C1/CCSc2ccc3ccccc3c21` .
Reply | inactive

Ask | State the result this test recorded for `CN(Cc1ccccc1)Cc1nc2c(c(=O)n(C)c(=O)n2C)n1CCCc1ccccc1` .
Reply | inactive

Ask | State the result this test recorded for CCCCC(CC)c1nnc(NC(=O)c2cccs2)s1 (stereo not given) .
Reply | active

Ask | State the result this test recorded for `CN1CCN(S(=O)(=O)c2ccc(Br)c3ccccc23)CC1` .
Reply | inactive
